test system: Pseudomonas aeruginosa; assay: Antibacterial activity against Pseudomonas aeruginosa BNCC 125486 assessed as inhibition of bacterial growth incubated for 16 hrs by broth microdilution method; format: functional
Starred links: 1 amine or outer side, 2 acyl side, 3 side chain; linkers in the order of their positions; H or OH if unused. Positions of bridges follow the written chain, without caps; N, C: chain ends. Non-standard residues stand in square brackets, D forms with d. Residues, ends and D or L forms follow the SMILES beside them. X1 = O=C([C@H](CCCCNCC=[*:3])N[*:1])[*:2]
Here, each record is paired with measured MIC data.
Give your result in µg/mL as a bare value.

Observe how each entry below is paired with its result.
CC(C)[C@H](N)C(=O)N[C@@H](CCCCN)C(=O)N[C@@H](CCCNC(=N)N)C(=O)N[C@@H](Cc1ccccc1)C(=O)N[C@@H](CCCCN)C(=O)N[C@@H](CCCCN)C(=O)N[C@@H](Cc1ccccc1)C(=O)N[C@@H](Cc1ccccc1)C(=O)N[C@@H](CCCNC(=N)N)C(=O)N[C@@H](CCCCN)C(=O)N[C@@H](Cc1ccccc1)C(=O)N[C@@H](CCCCN)C(=O)N[C@@H](CCCCN)C(=O)N[C@@H](Cc1ccccc1)C(=O)N[C@H](C(N)=O)C(C)C (H-VKRFKKFFRKFKKFV-NH2); 8
CC(C)C[C@H](NC(=O)[C@H](C)NC(=O)[C@H](CCCCN)NC(=O)[C@H](C)NC(=O)[C@H](C)NC(=O)CNC(=O)[C@@H]1CCCCNC/C=C/CNCCCC[C@H](NC(=O)[C@H](Cc2ccccc2)NC(=O)CN)C(=O)N[C@@H](CC(=O)O)C(=O)N[C@@H](CC(C)C)C(=O)N[C@@H](CC(C)C)C(=O)N1)C(=O)N[C@H](C(=O)N[C@@H](CCCCN)C(=O)N[C@H](C(=O)N[C@H](C(=O)N[C@@H](CC(C)C)C(=O)N[C@@H](Cc1ccccc1)C(N)=O)C(C)C)[C@@H](C)O)C(C)C (H-GF[X1]DLL[X1]GAAKALVKTVLF-NH2; staple (E) 3-7); 128

Would you kindly look at the next entry?
IN: So what's the measured MIC for this one? CC(C)C[C@@H]1NC(=O)[C@H](C)NC(=O)[C@@H](NC(=O)[C@H](C)NC(=O)[C@H](C)NC(=O)CNC(=O)[C@H](CCCCN)NC(=O)[C@H](CC(C)C)NC(=O)[C@H](CC(C)C)NC(=O)[C@H](CC(=O)O)NC(=O)[C@H](CCCCN)NC(=O)[C@H](Cc2ccccc2)NC(=O)CN)CCCCNC/C=C/CNCCCC[C@@H](C(=O)N[C@H](C(=O)N[C@H](C(=O)N[C@@H](CC(C)C)C(=O)N[C@@H](Cc2ccccc2)C(N)=O)C(C)C)[C@@H](C)O)NC(=O)[C@H](C(C)C)NC1=O (H-GFKDLLKGAA[X1]ALV[X1]TVLF-NH2; staple (E) 11-15)
OUT: 128

----------
tested on: Erythrocyte; experiment: Hemolytic activity against human RBC assessed as concentration required to cause 10% hemolysis; type: toxicity, cell-based
Starred links: 1 amine or outer side, 2 acyl side, 3 side chain; linkers in the order of their positions; H or OH if unused. Positions of bridges follow the written chain, without caps; N, C: chain ends. Non-standard residues stand in square brackets, D forms with d. Residues, ends and D or L forms follow the SMILES beside them. X1 = O=C([C@H](CCCCNCC=[*:3])N[*:1])[*:2]
observed.property: MHC

Consider the worked cases shown below.
CC(C)[C@H](N)C(=O)N[C@H]1CCCCNCC#CCNCCCC[C@@H](C(=O)N[C@@H](Cc2ccccc2)C(=O)N[C@@H](Cc2ccccc2)C(=O)N[C@@H](CCCNC(=N)N)C(=O)N[C@@H](CCCCN)C(=O)N[C@@H](Cc2ccccc2)C(=O)N[C@@H](CCCCN)C(=O)N[C@@H](CCCCN)C(=O)N[C@@H](Cc2ccccc2)C(=O)N[C@H](C(N)=O)C(C)C)NC(=O)[C@H](CCCCN)NC(=O)[C@H](Cc2ccccc2)NC(=O)[C@H](CCCNC(=N)N)NC1=O; > 128 µg/mL
CC(C)[C@H](N)C(=O)N[C@H]1CCCCNCc2ccccc2CNCCCC[C@@H](C(=O)N[C@@H](Cc2ccccc2)C(=O)N[C@@H](Cc2ccccc2)C(=O)N[C@@H](CCCNC(=N)N)C(=O)N[C@@H](CCCCN)C(=O)N[C@@H](Cc2ccccc2)C(=O)N[C@@H](CCCCN)C(=O)N[C@@H](CCCCN)C(=O)N[C@@H](Cc2ccccc2)C(=O)N[C@H](C(N)=O)C(C)C)NC(=O)[C@H](CCCCN)NC(=O)[C@H](Cc2ccccc2)NC(=O)[C@H](CCCNC(=N)N)NC1=O; > 128 µg/mL
CC(C)[C@H](N)C(=O)N[C@H]1CCCCNC/C=C/CNCCCC[C@@H](C(=O)N[C@@H](Cc2ccccc2)C(=O)N[C@@H](Cc2ccccc2)C(=O)N[C@@H](CCCNC(=N)N)C(=O)N[C@@H](CCCCN)C(=O)N[C@@H](Cc2ccccc2)C(=O)N[C@@H](CCCCN)C(=O)N[C@@H](CCCCN)C(=O)N[C@@H](Cc2ccccc2)C(=O)N[C@H](C(N)=O)C(C)C)NC(=O)[C@H](CCCCN)NC(=O)[C@H](Cc2ccccc2)NC(=O)[C@H](CCCNC(=N)N)NC1=O (H-V[X1]RFK[X1]FFRKFKKFV-NH2; staple (E) 2-6); > 128 µg/mL

IN: Field request: MHC | item: CC(C)C[C@H](NC(=O)[C@H](C)NC(=O)[C@@H]1CCCCNC/C=C/CNCCCC[C@H](NC(=O)[C@H](CC(C)C)NC(=O)[C@H](CC(C)C)NC(=O)[C@H](CC(=O)O)NC(=O)[C@H](CCCCN)NC(=O)[C@H](Cc2ccccc2)NC(=O)CN)C(=O)NCC(=O)N[C@@H](C)C(=O)N[C@@H](C)C(=O)N1)C(=O)N[C@H](C(=O)N[C@@H](CCCCN)C(=O)N[C@H](C(=O)N[C@H](C(=O)N[C@@H](CC(C)C)C(=O)N[C@@H](Cc1ccccc1)C(N)=O)C(C)C)[C@@H](C)O)C(C)C (H-GFKDLL[X1]GAA[X1]ALVKTVLF-NH2; staple (E) 7-11)
OUT: 32 µg/mL
